# protocol_text: Stability in liver microsomes, dog
readout_type: Trep Concentration 30 min (µM)
Reply numerically in µM, unit not repeated.

Query (compound): CCCCCC(CCC1C(O)CC2Cc3c(cccc3OCC(=O)O)CC21)OC(=O)OCC(=O)O (stereo not shown) ; field requested: Trep Concentration 30 min 0

Query (compound): CCCCCC(CCC1C(O)CC2Cc3c(cccc3OCC(=O)O)CC21)OCCC (stereo not shown) ; field requested: Trep Concentration 30 min 0.0485

Query (compound): CCCCCC(CCC1C(O)CC2Cc3c(cccc3OCC(=O)O)CC21)OC(=O)C1CCCN1 (stereo not shown) ; field requested: Trep Concentration 30 min 0.353

Query (compound): CCCCCC(CCC1C(O)CC2Cc3c(cccc3OCC(=O)O)CC21)OC(=O)CCN (stereo not shown) ; field requested: Trep Concentration 30 min 0.0273

Query (compound): CCCCCC(CCC1C(O)CC2Cc3c(cccc3OCC(=O)O)CC21)OCOC(=O)C(C)(C)C (stereo not shown) ; field requested: Trep Concentration 30 min 0.834

Query (compound): CCCCCC(CCC1C(O)CC2Cc3c(cccc3OCC(=O)O)CC21)OC(=O)COc1ccccc1 (stereo not shown) ; field requested: Trep Concentration 30 min 0.801

Query (compound): CCCCCC(CCC1C(O)CC2Cc3c(cccc3OCC(=O)O)CC21)OC(=O)c1ccc(O)cc1 (stereo not shown) ; field requested: Trep Concentration 30 min 0.0375

Query (compound): CCCCCC1CCC2C(CC3Cc4c(cccc4OCC(=O)O)CC32)OP(=O)(Oc2ccccc2)O1 (mixture of isomers) ; field requested: Trep Concentration 30 min 0.003

Query (compound): CCCCCC(CCC1C(O)CC2Cc3c(cccc3OCC(=O)O)CC21)OC(=O)N1CCC(O)CC1 (stereo not shown) ; field requested: Trep Concentration 30 min 0

Query (compound): CCCCCC(CCC1C(O)CC2Cc3c(cccc3OCC(=O)O)CC21)OC(=O)NCCO (stereo not shown) ; field requested: Trep Concentration 30 min 0

Query (compound): CCCCCC(CCC1C(O)CC2Cc3c(cccc3OCC(=O)O)CC21)OC(C)=O (stereo not shown) ; field requested: Trep Concentration 30 min 0.932

Query (compound): CCCCCC(CCC1C(O)CC2Cc3c(cccc3OCC(=O)O)CC21)OC(=O)C(C)C (stereo not shown) ; field requested: Trep Concentration 30 min 0.993

###

Recorded Trep Concentration (μM) 60 min, one value per entry.
# protocol_text: Stability in cryopreserved hepatocytes, rat
Answer by giving the amount and then stating its unit.

Here are 8 compounds together with their reported answers.
| compound | recorded_measurement |
| --- | --- |
| CCCCCC(CCC1C(O)CC2Cc3c(cccc3OCC(=O)O)CC21)OC(=O)c1cccc(O)c1 (stereo not drawn) | 0.0477 µM |
| CCCCCC(CCC1C(O)CC2Cc3c(cccc3OCC(=O)O)CC21)OC(=O)CCN (stereo not drawn) | 0.106 µM |
| CCCCCC(CCC1C(O)CC2Cc3c(cccc3OCC(=O)O)CC21)OC(=O)NC (stereo not drawn) | 0.00511 µM |
| CCCCCC(CCC1C(O)CC2Cc3c(cccc3OCC(=O)O)CC21)OC(=O)C(N)CCCCN (stereo not drawn) | 0.169 µM |
| CCCCCC(CCC1C(O)CC2Cc3c(cccc3OCC(=O)O)CC21)OC(=O)NCCO (stereo not drawn) | 0 µM |
| CCCCCC(CCC1C(O)CC2Cc3c(cccc3OCC(=O)O)CC21)OC (stereo not drawn) | 0.00537 µM |
| CCCCCC(CCC1C(O)CC2Cc3c(cccc3OCC(=O)O)CC21)OP(=O)(O)O (stereo not drawn) | 0.564 µM |
| CCCCCC(CCC1C(O)CC2Cc3c(cccc3OCC(=O)O)CC21)OC(=O)COc1ccc(O)cc1 (stereo not drawn) | 0.441 µM |

Query (compound): `CCCCC[C@H]1CC[C@@H]2[C@H]3Cc4cccc(OCC(=O)O)c4C[C@H]3C[C@H]2OC(=O)O1` ; field requested: Trep Concentration (μM) 60 min 0.482 µM

###

# protocol_text: Stability in liver microsomes, dog
readout_type: Trep Concentration 10 min

Here are 5 molecules together with their reported answers.
| molecule | Trep Concentration 10 min |
| --- | --- |
| CCCCCC(CCC1C(O)CC2Cc3c(cccc3OCC(=O)O)CC21)OC(=O)COc1ccc(OC(F)(F)F)cc1 (centres unmarked) | 0.548 µM |
| CCCCCC(CCC1C(O)CC2Cc3c(cccc3OCC(=O)O)CC21)OC(=O)c1ccc(C)cc1 (centres unmarked) | 0.219 µM |
| CCCCCC(CCC1C(O)CC2Cc3c(cccc3OCC(=O)O)CC21)OC (centres unmarked) | 0 µM |
| CCCCCC(CCC1C(O)CC2Cc3c(cccc3OCC(=O)O)CC21)OC(N)=O (centres unmarked) | 0.312 µM |
| CCCCCC(CCC1C(O)CC2Cc3c(cccc3OCC(=O)O)CC21)OC(=O)CN (centres unmarked) | 0.347 µM |

Query (molecule): `CCCCC[C@H]1CC[C@@H]2[C@H]3Cc4cccc(OCC(=O)O)c4C[C@H]3C[C@H]2OC(=O)O1` ; field requested: Trep Concentration 10 min 0.975 µM

###

# protocol_text: Stability in liver microsomes, human
# measurement_conditions: human
Simple rule here: AUC less than 9 µmol·min/L is MET, otherwise NOT MET.

| compound | label_class |
| --- | --- |
| CCCCCC(CCC1C(O)CC2Cc3c(cccc3OCC(=O)O)CC21)OC(=O)NCCO (stereo not drawn) | MET |

Does the reported AUC of the following compound sit strictly below 9 µmol·min/L? CCCCCC(CCC1C(O)CC2Cc3c(cccc3OCC(=O)O)CC21)OC(=O)CC (stereo not drawn) NOT MET

Does the reported AUC of the following compound sit strictly below 9 µmol·min/L? CCCCCC(CCC1C(O)CC2Cc3c(cccc3OCC(=O)O)CC21)OC(N)=O (stereo not drawn) NOT MET

Does the reported AUC of the following compound sit strictly below 9 µmol·min/L? CCCCCC(CCC1C(O)CC2Cc3c(cccc3OCC(=O)O)CC21)OC(=O)OC(C)C (stereo not drawn) NOT MET

Does the reported AUC of the following compound sit strictly below 9 µmol·min/L? CCCCCC(CCC1C(O)CC2Cc3c(cccc3OCC(=O)O)CC21)OC(=O)c1ccccc1O (stereo not drawn) MET

Does the reported AUC of the following compound sit strictly below 9 µmol·min/L? CCCCCC(CCC1C(O)CC2Cc3c(cccc3OCC(=O)O)CC21)OC(=O)N1CCC(O)CC1 (stereo not drawn) MET

Does the reported AUC of the following compound sit strictly below 9 µmol·min/L? CCCCCC(CCC1C(O)CC2Cc3c(cccc3OCC(=O)O)CC21)OC(=O)CO (stereo not drawn) NOT MET

###

# protocol_text: Stability in human subcutaneous skin homogenate
readout_type: Trep Concentration 120 min (µM)
Reply numerically in µM, unit not repeated.

Query (compound): CCCCCC(CCC1C(O)CC2Cc3c(cccc3OCC(=O)O)CC21)OC(=O)CCC(=O)N1CCOCC1 (stereo not drawn) ; field requested: Trep Concentration 120 min 0

Query (compound): CCCCCC(CCC1C(O)CC2Cc3c(cccc3OCC(=O)O)CC21)OP(=O)(O)O (stereo not drawn) ; field requested: Trep Concentration 120 min 1.07

###

# protocol_text: Stability in cryopreserved hepatocytes, rat
readout_type: Trep Concentration (μM) 60 min (µM)
Reply numerically in µM, unit not repeated.

| compound | recorded_measurement |
| --- | --- |
| CCCCCC(CCC1C(O)CC2Cc3c(cccc3OCC(=O)O)CC21)OC(=O)c1ccc(O)c(O)c1 (stereo not drawn) | 0 |
| CCCCCC1CCC2C(CC3Cc4c(cccc4OCC(=O)O)CC32)OP(=O)(Oc2ccccc2)O1 (mixture of isomers) | 0 |
| CCCCCC(CCC1C(O)CC2Cc3c(cccc3OCC(=O)O)CC21)OCC(=O)O (stereo not drawn) | 0 |
| CCCCCC(CCC1C(O)CC2Cc3c(cccc3OCC(=O)O)CC21)OC(=O)CC (stereo not drawn) | 0.424 |
| CCCCCC(CCC1C(O)CC2Cc3c(cccc3OCC(=O)O)CC21)OC(=O)CCC(=O)N1CCOCC1 (stereo not drawn) | 0.18 |
| CCCCCC(CCC1C(O)CC2Cc3c(cccc3OCC(=O)O)CC21)OC(=O)c1ccc(C)cc1 (stereo not drawn) | 0.221 |

Query (compound): CCCCCC(CCC1C(O)CC2Cc3c(cccc3OCC(=O)O)CC21)OC(=O)C12CC3CC(CC(C3)C1)C2 (stereo not drawn) ; field requested: Trep Concentration (μM) 60 min 0.0712

Query (compound): CCCCCC(CCC1C(O)CC2Cc3c(cccc3OCC(=O)O)CC21)OC(=O)COc1ccccc1 (stereo not drawn) ; field requested: Trep Concentration (μM) 60 min 0.237

Query (compound): CCCCCC(CCC1C(O)CC2Cc3c(cccc3OCC(=O)O)CC21)OC(=O)C(C)C (stereo not drawn) ; field requested: Trep Concentration (μM) 60 min 0.189

Query (compound): CCCCCC(CCC1C(O)CC2Cc3c(cccc3OCC(=O)O)CC21)OCc1oc(=O)oc1C (stereo not drawn) ; field requested: Trep Concentration (μM) 60 min 0.523

Query (compound): CCCCCC(CCC1C(O)CC2Cc3c(cccc3OCC(=O)O)CC21)OC(=O)CCC(=O)O (stereo not drawn) ; field requested: Trep Concentration (μM) 60 min 0.594

Query (compound): CCCCCC(CCC1C(O)CC2Cc3c(cccc3OCC(=O)O)CC21)OC(=O)CO (stereo not drawn) ; field requested: Trep Concentration (μM) 60 min 0.393

Query (compound): CCCCCC(CCC1C(O)CC2Cc3c(cccc3OCC(=O)O)CC21)Oc1ccccc1C(=O)O (stereo not drawn) ; field requested: Trep Concentration (μM) 60 min 0

Query (compound): CCCCCC(CCC1C(O)CC2Cc3c(cccc3OCC(=O)O)CC21)OCCC (stereo not drawn) ; field requested: Trep Concentration (μM) 60 min 0.0209

Query (compound): CCCCCC(CCC1C(O)CC2Cc3c(cccc3OCC(=O)O)CC21)OC(=O)c1ccccc1O (stereo not drawn) ; field requested: Trep Concentration (μM) 60 min 0.00634

Query (compound): CCCCCC(CCC1C(O)CC2Cc3c(cccc3OCC(=O)O)CC21)OCC (stereo not drawn) ; field requested: Trep Concentration (μM) 60 min 0.0231

Query (compound): CCCCCC(CCC1C(O)CC2Cc3c(cccc3OCC(=O)O)CC21)OC(C)=O (stereo not drawn) ; field requested: Trep Concentration (μM) 60 min 0.397

Query (compound): CCCCCC(CCC1C(O)CC2Cc3c(cccc3OCC(=O)O)CC21)OC(N)=O (stereo not drawn) ; field requested: Trep Concentration (μM) 60 min 0.307
